Provenance of the data: PubChem BioAssay (EPA / NIEHS)

# RUN_DESCRIPTION: CCTE_Harrill_HTTr_Apoptosis_DMEM_24hr: (Pilot) CCTE's 24-hour Apoptosis Assessment for the High-Throughput Transcriptomics (HTTr) Platform, in MCF-7 cells cultured in DMEM + 10% fetal bovine serum, Harrill Lab (AID 2283983)
Activity calls are given as the source filed them. The calls were made as follows: active = hit-call score of the fitted dose curve at least 0.9, where 1 is the maximum; inactive = score below 0.9.
Your response should consist of one outcome taken from y = active, n = inactive

Lookup: Assay outcome for CC(=O)O[C@]1(C(C)=O)CC[C@H]2[C@@H]3C=C(Cl)C4=CC(=O)[C@@H]5C[C@@H]5[C@]4(C)[C@H]3CC[C@@]21C : what was it?
Found: n

Lookup: Same lookup for Nc1nc(Cl)nc2c1ncn2[C@H]1C[C@H](O)[C@@H](CO)O1 , please.
Found: n

Lookup: Same question for COC(=O)[C@H]1[C@H]2C[C@@H]3c4[nH]c5cc(OC)ccc5c4CCN3C[C@H]2C[C@@H](OC(=O)c2cc(OC)c(OC)c(OC)c2)[C@@H]1OC please.
Found: y

Lookup: Now the same for CCN(CC)CCOc1ccc(C(=C(Cl)c2ccccc2)c2ccccc2)cc1
Found: y

====

# RUN_DESCRIPTION: APR_HepG2_CellLoss_72hr: Apredica 72-hour HepG2 Assay for Cell Loss (AID 2282915)
# CONDITIONS: high-content imaging
Active and inactive are the calls of the source. Rule for the calls: active = hit-call score of the fitted dose curve at least 0.9, where 1 is the maximum; inactive = score below 0.9.
Please answer using one outcome listed in t for active, f for inactive

Lookup: Record request — test call for COC(=O)CCCC(=O)OC
Found: f

Lookup: Now try CC(COCC(C)OC(=O)c1ccccc1)OC(=O)c1ccccc1 (centres undefined) .
Found: f

Lookup: Repeat for the following compound: CCCCCCCCCCCCCCCCO
Found: f

Lookup: Item: CN(C)CCCN1c2ccccc2Sc2ccc(Cl)cc21
Found: t

Lookup: Also Cc1cc(Cc2ccc(N)c(C)c2)ccc1N , if possible.
Found: t

Lookup: Would you kindly repeat that for CCCC[C@H]1CN(CC2CCOCC2)C(=O)OC12CCN(C1(C)CCN(C(=O)c3c(C)ncnc3C)CC1)CC2 ?
Found: f

Lookup: Also need O=C1c2c(O)cccc2Cc2cccc(O)c21 , thanks.
Found: f

Lookup: Would you kindly repeat that for Oc1ccccc1O ?
Found: t

Lookup: And the next one, CC(N)=O ?
Found: t

Lookup: Now this one: C/C=C/C=C/C(=O)O
Found: t

Lookup: NCCOCCOCCN , same question.
Found: t

Lookup: Would you mind doing COc1ccc(OC(F)(F)F)cc1CN[C@H]1CCCN[C@H]1c1ccccc1 as well?
Found: t

Lookup: Moving on to the next compound: CCCCCCC(C=O)=Cc1ccccc1
Found: t

Lookup: What about this compound? CC(=O)OCC(COC(C)=O)OC(C)=O
Found: f

Lookup: Try this compound next: Cn1cnc2c1c(=O)[nH]c(=O)n2C
Found: f

Lookup: Next: CCC(C)N(C)C(=O)c1cc2ccccc2c(-c2ccccc2Cl)n1 (centres undefined)
Found: t

Lookup: Please answer likewise for CO[C@@H]1COCC[C@@H]1N[C@@H]1CC[C@@](C(=O)N2CCc3ncc(C(F)(F)F)cc3C2)(C(C)C)C1
Found: f

Lookup: Cool, now Cc1occc(=O)c1O
Found: f

Lookup: Same again, this time with Cc1c(C)c2c(c(C)c1O)CCC(C)(COc1ccc(CC3SC(=O)NC3=O)cc1)O2 (centres undefined)
Found: t

Lookup: Record: NC1CCCCC1
Found: f

Lookup: Would you mind doing CC(C)(C)c1ccccc1 as well?
Found: f

Lookup: Do the same for O=C(N[C@@H](c1ccccc1)[C@@H]1CCCCN1)c1cccc(C(F)(F)F)c1Cl please
Found: t

Lookup: And S=c1[nH]c2ccccc2s1 ?
Found: f

Lookup: CC(C)NCC(O)c1ccc(O)c(O)c1 (centres undefined) ?
Found: t

Lookup: Similarly, OCC(CO)n1cnc(-c2ccc(F)cc2)c1-c1ccnc(Oc2ccccc2)n1 ?
Found: f

Lookup: Would you kindly repeat that for CCCCC(CC)CO (centres undefined) ?
Found: f

Lookup: Note, next up: CN(C)CCCN(C)CCCN(C)C
Found: f

Lookup: // next record C#CC(O)C(CC)CCCC (centres undefined)
Found: f

Lookup: What do you have for Nc1nc(Cl)nc2c1ncn2[C@H]1C[C@H](O)[C@@H](CO)O1 ?
Found: t

====

# Read-out: Human Leukocyte Antigen - DR isotype (HLADR), HLA-DRA (gene 3122)
# RUN_DESCRIPTION: BSK_CASM3C_HLADR: BioMAP Diversity Plus: CASM3C Assay for Human Leukocyte Antigen - DR isotype (HLADR) Biomarker Activity (AID 2283043);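 also: cell-surface HLA-DR protein level quantified by ELISA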
# CONDITIONS: primary human coronary artery smooth muscle cells; actives raise or lower the signal
Calls of active or inactive are those of the source. The calls were made as follows: active = hit-call score of the fitted dose curve at least 0.9, where 1 is the maximum; inactive = score below 0.9.
API: response.call in y = active, n = inactive

Lookup: Called result for CC(C)(O)c1ccc(CNC(=O)c2cccnc2Oc2ccc(F)cc2)cc1
Found: y

Lookup: # repeat for CCCCc1nc2cccnc2n1Cc1ccc(-c2ccccc2-c2nnn[nH]2)cc1
Found: n

Lookup: Ok, now CC1(C)C(=O)NC(=O)N1CO
Found: n

Lookup: Lookup C#CC(O)C(CC)CCCC (stereo not given)
Found: n

Lookup: Next up: O=NO
Found: n

Lookup: Would you kindly repeat that for Cc1ccc(-c2cc(C(F)(F)F)nn2-c2ccc(S(N)(=O)=O)cc2)cc1 ?
Found: y

Lookup: And what about the compound CCCCCCCC(=O)OC ?
Found: n

Lookup: Repeat with O=C(N[C@@H](c1ccccc1)[C@@H]1CCCCN1)c1cccc(C(F)(F)F)c1Cl
Found: n

Lookup: What would you report for CCCC(=O)O ?
Found: n

Lookup: Now try CCCCCCCCCCCCCCOS(=O)(=O)O .
Found: n

Lookup: Entry Cc1cn([C@H]2C=C[C@@H](CO)O2)c(=O)[nH]c1=O please
Found: n

Lookup: Can you handle CC(C)(C)c1ccccc1 next?
Found: n

Lookup: Request: CC(=O)[C@@]1(O)CC[C@H]2[C@@H]3CCC4=CC(=O)CC[C@]4(C)[C@H]3CC[C@@]21C
Found: n

Lookup: Subsequent entry: Cc1c(C)c2c(c(C)c1O)CCC(C)(COc1ccc(CC3SC(=O)NC3=O)cc1)O2 (stereo not given)
Found: n

Lookup: Cool, now O=C1c2c(O)cccc2Cc2cccc(O)c21
Found: n

Lookup: Now consider O=C1NC(=O)C(c2ccccc2)(c2ccccc2)N1 and answer again.
Found: n

Lookup: Same lookup for CCN(CC)CCOc1ccc(C(=C(Cl)c2ccccc2)c2ccccc2)cc1 , please.
Found: y

Lookup: Also CCCC[C@H]1CN(CC2CCOCC2)C(=O)OC12CCN(C1(C)CCN(C(=O)c3c(C)ncnc3C)CC1)CC2 ?
Found: n

Lookup: And CCOCCOCCO ?
Found: n

Lookup: // query: CN(C)C(=O)NC1(c2ccccc2)CCN(CCC[C@]2(c3ccc(Cl)c(Cl)c3)CCCN(C(=O)c3ccccc3)C2)CC1
Found: n

Lookup: # iterate: C/C=C/c1ccc(OC)cc1
Found: n

Lookup: // same read-out, input: CSc1ccc(Oc2ccc(S(N)(=O)=O)cc2CN(C)C)cc1C
Found: n

Lookup: // next record CC(COCC(C)OC(=O)c1ccccc1)OC(=O)c1ccccc1 (stereo not given)
Found: n

Lookup: // next record Cc1cc(Cc2ccc(N)c(C)c2)ccc1N
Found: n

Lookup: Repeat for the following compound: COC(=O)CCCC(=O)OC
Found: n

Lookup: Ok, now CCCCC(CC)COP(=O)(OCC(CC)CCCC)OCC(CC)CCCC (stereo not given)
Found: n

Lookup: Continue with CCCCOC(=O)CCCCC(=O)OCCCC
Found: n

Lookup: Okay, and OCC(CO)n1cnc(-c2ccc(F)cc2)c1-c1ccnc(Oc2ccccc2)n1 ?
Found: y

Lookup: # iterate: CC(=O)O[C@]1(C(C)=O)CC[C@H]2[C@@H]3C=C(Cl)C4=CC(=O)[C@@H]5C[C@@H]5[C@]4(C)[C@H]3CC[C@@]21C
Found: n

Lookup: Next compound: CC(=O)CC(c1ccccc1)c1c(O)c2ccccc2oc1=O (stereo not given)
Found: n

Lookup: And the next one, CN(C)CCCN1c2ccccc2Sc2ccc(Cl)cc21 ?
Found: y

Lookup: Can you check CS(=O)(=O)c1ccc([C@@H](C[C@H]2CCC(=O)C2)C(=O)Nc2cnccn2)cc1Cl next?
Found: n

Lookup: Please do the same for O=C(Oc1ccccc1)c1cccc(C(=O)Oc2ccccc2)c1 as well.
Found: n

Lookup: Next compound: O=C(O)c1[nH]n(-c2ccc(S(=O)(=O)O)cc2)c(=O)c1N=Nc1ccc(S(=O)(=O)O)cc1
Found: n

Lookup: Same question for NCCOCCOCCN please.
Found: n

Lookup: Input C/C=C/C=C/C(=O)O
Found: n

Lookup: Also, CN(C)C(=O)NC1(c2ccccc2)CCN(CC[C@@]2(c3ccc(F)c(F)c3)CN(C(=O)c3ccccc3)CCO2)CC1 please.
Found: n

Lookup: Try this compound too: COc1ccc(C(=O)Nc2nc3ccccc3c(NCc3ccccc3)c2C#N)cc1
Found: n

Lookup: Next record, please: O=C(O)c1cccnc1
Found: n

Lookup: What do we get for CC(C)c1cccc(C(C)C)c1NC(=O)NS(=O)(=O)c1cc(C(C)(C)O)co1 ?
Found: n

Lookup: Same thing, different compound: CC(C)NCC(O)c1ccc(O)c(O)c1 (stereo not given)
Found: n

Lookup: Quick one: CC(=O)OCC(COC(C)=O)OC(C)=O
Found: n

Lookup: Field entry: O=C1OC(c2ccc(O)cc2)(c2ccc(O)cc2)c2ccccc21
Found: n

Lookup: Param item: O=C1CCCCC1
Found: n

Lookup: Now consider CCCCCCCCCC[N+](C)(C)[O-] .
Found: n

Lookup: Then Cc1occc(=O)c1O ?
Found: n

Lookup: How about this compound: CC(=O)OC1CC(C)OC(C)O1 (stereo not given)
Found: n

Lookup: Then CC(=O)O ?
Found: n

Lookup: Try this compound next: CO[C@@H]1COCC[C@@H]1N[C@@H]1CC[C@@](C(=O)N2CCc3ncc(C(F)(F)F)cc3C2)(C(C)C)C1
Found: n

Lookup: Item: CC(C)c1cccc(C(C)C)c1
Found: n
